TESTED SYSTEM: PD-1 (Homo sapiens (Human)) (UniProt Q15116)
Sequence (Q15116 21-288 limits assumed): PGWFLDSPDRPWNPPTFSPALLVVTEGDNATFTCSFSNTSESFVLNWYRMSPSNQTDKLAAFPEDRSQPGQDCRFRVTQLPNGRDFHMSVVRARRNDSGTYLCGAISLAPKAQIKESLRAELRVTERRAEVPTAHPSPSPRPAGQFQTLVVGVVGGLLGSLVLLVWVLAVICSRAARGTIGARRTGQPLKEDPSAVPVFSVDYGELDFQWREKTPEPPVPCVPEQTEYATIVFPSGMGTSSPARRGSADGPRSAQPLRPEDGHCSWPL
METHOD: flow cytometry, Jurkat/PD-1 cells; vs wildtype PD-L2 IgV-Fc

BINDER	Fold increase over wildtype PD-L2 IgV-Fc (fold)
variant PD-L2 IgV-Fc H15Q, T47A (Fc fusion, not shown: a dimerising Fc or GST; small tags and cut ends) FTVTVPKELYIIEQGSNVTLECNFDTGSHVNLGAITASLQKVENDASPHRERATLLEEQLPLGKASFHIPQVQVRDEGQYQCIIIYGVAWDYKYLTLK	2.7
variant PD-L2 IgV-Fc I13V, H15Q, Q82R (Fc fusion, not shown: a dimerising Fc or GST; small tags and cut ends) FTVTVPKELYIVEQGSNVTLECNFDTGSHVNLGAITASLQKVENDTSPHRERATLLEEQLPLGKASFHIPQVQVRDEGQYRCIIIYGVAWDYKYLTLK	7.74

These measurements were taken from patent US20200040059A1.
